Item-by-item account of pIC50
# System: GalNAc-T2 lectin domain (T2ld) (Homo sapiens, UniProt Q10471)
# Construct: made in house; host or cells: High Five insect cells (baculovirus, pAcGP67-A)
# Sequence (Q10471 408-571): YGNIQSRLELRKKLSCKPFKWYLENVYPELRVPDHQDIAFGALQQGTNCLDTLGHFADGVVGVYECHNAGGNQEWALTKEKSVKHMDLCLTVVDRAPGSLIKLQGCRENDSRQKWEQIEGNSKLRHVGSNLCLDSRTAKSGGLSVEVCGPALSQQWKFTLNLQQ
# Measurement Protocol: Direct binding ELISA to GalNAc-MUC1 glycopeptide, competitive inhibition, T2ld
# Details: read-out: Concentration required for 50% inhibition (IC50), T2ld
pIC50: −log10 of the molar value.

O=c1ccn([C@@H]2O[C@H](COP(=O)(O)OP(=O)(O)O)[C@@H](O)[C@H]2O)c(=O)[nH]1; < 1.00
CO[C@H]1O[C@H](CO)[C@H](O)[C@H](O)[C@H]1O; < 1.00
CC(=O)N[C@H]1[C@@H](Oc2ccccc2)O[C@H](CO)[C@H](O)[C@@H]1O; 1.82

Here is another compound to look at.
Inquiry: Tell us which pIC50 value is on record for CC(=O)N[C@H]1C(O)O[C@H](CO)[C@@H](O)[C@@H]1O (stereo partly shown)
Reply text: < 1.00

* * *

# System: GalNAc-T4 lectin domain (T4ld) (Homo sapiens)
# Construct: made in house; host or cells: High Five insect cells (baculovirus, pAcGP67-A)
# Sequence (Q8N4A0 405-578): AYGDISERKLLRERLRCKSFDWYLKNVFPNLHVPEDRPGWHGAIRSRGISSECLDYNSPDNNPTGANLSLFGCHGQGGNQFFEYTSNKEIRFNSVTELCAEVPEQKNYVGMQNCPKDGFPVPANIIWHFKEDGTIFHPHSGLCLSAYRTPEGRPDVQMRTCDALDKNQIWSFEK
# Measurement Protocol: Direct binding ELISA to GalNAc-MUC1 glycopeptide, competitive inhibition, T4ld
Item-by-item account of IC50

Known IC50 results, listed for orientation:
CC(=O)N[C@H]1[C@@H](OCc2ccccc2)O[C@H](CO)[C@@H](O)[C@@H]1O; > 100 mM
COC1O[C@H](CO)[C@H](O)[C@H](O)[C@H]1O (single isomer, unassigned); > 100 mM
CC(=O)N[C@H]1[C@H](Oc2ccccc2[N+](=O)[O-])O[C@H](CO)[C@H](O)[C@@H]1O; 8 mM

Here is another compound to look at.
Inquiry: Tell us which IC50 value is on record for "CC(=O)N[C@H]1[C@H](OCc2ccccc2)O[C@H](CO)[C@@H](O)[C@@H]1O"
Reply text: > 100 mM

* * *

# System: GalNAc-T2 lectin domain (T2ld) (Homo sapiens, UniProt Q10471)
# Construct: made in house; host or cells: High Five insect cells (baculovirus, pAcGP67-A)
# Measurement Protocol: Direct binding ELISA to GalNAc-MUC1 glycopeptide, competitive inhibition, T2ld
Quantity Name: IC50

CC(=O)N[C@H]1[C@@H](OCc2ccccc2)O[C@H](CO)[C@@H](O)[C@@H]1O; > 100 mM
COC1O[C@H](CO)[C@H](O)[C@H](O)[C@H]1O (single isomer, unassigned); > 100 mM
CC(=O)N[C@H]1[C@H](OCc2ccccc2)O[C@H](CO)[C@@H](O)[C@@H]1O; > 100 mM

Here is another molecule to look at.
Inquiry: Tell us which IC50 value is on record for "CC(=O)N[C@H]1[C@H](Oc2ccccc2[N+](=O)[O-])O[C@H](CO)[C@H](O)[C@@H]1O"
Reply text: > 12 mM

* * *

# System: secreted soluble GalNAc-T4 (sT4) (Homo sapiens)
# Construct: using the GalNAc-T4-sol construct that encodes residues 32-578 inserted into pT7T3U19; 6xHis (N); thrombin cleavage site (N); T7 tag (N); made in house; host or cells: High Five insect cells (baculovirus)
# Measurement Protocol: Direct binding ELISA to GalNAc-MUC1 glycopeptide, competitive inhibition, sT4
# Details: read-out: Concentration required for 50% inhibition (IC50), sT4; binding to GalNAc-MUC1 glycopeptide
Item-by-item account of IC50
# output: bare number, implied unit mM

CO[C@H]1O[C@H](CO)[C@H](O)[C@H](O)[C@H]1O [MeαGal]; 50

Here is another compound to look at.
Inquiry: Tell us which IC50 value is on record for CC(=O)N[C@H]1[C@H](Oc2ccc([N+](=O)[O-])cc2)O[C@H](CO)[C@H](O)[C@@H]1O [pNPβGalNAc]
Reply text: 0.8
